protein stability index values for the variants below.
B1: PLD5 (parent)
chain: KRTYWPDLDAKIREALVLRSVRVR

Variants of: B1
protocol details: protein stability index of a GFP-peptide fusion (GPS, HEK-293T) (PSI 1-6); higher = more stable;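 also: lentivirally expressed fusions sorted by FACS into six bins by GFP to DsRed ratio, PSI derived from sequencing read proportions per bin multiplied by bin number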
details: c terminus: a fixed tail appended

{"mutant code": "R13A", "protein stability index": 1.3}
{"mutant code": "D7L", "protein stability index": 1.82}
{"mutant code": "E14C", "protein stability index": 1.46}
{"mutant code": "L8W", "protein stability index": 1.85}

Query: Look up and report measured protein stability index for this entry: D7A
Reply: 1.87

Query: Look up and report measured protein stability index for this entry: P6D
Reply: 1.28

Source of measurements: the supplement of paper PMC10567573
